Source: the supplement of paper PMC4314810

HRG-induced Akt activation (log2): recorded values
Tested on: MCF7
Assay: HRG-induced Akt activation (dPAkt = log2 pAkt/Akt HRG-stimulated minus log2 pAkt/Akt basal) (log2 ratio difference); higher = stronger HRG-induced Akt(T308) phosphorylation
Conditions: miRNA mimic concentration 10 nM; time after transfection 72 h; heregulin 10 ng/ml; stimulation time 1 h
Outcome measure: HRG-induced Akt activation (log2)

Query sequence: AGGCGGAGACUUGGGCAAUUG
Outcome measure: HRG-induced Akt activation (log2)
Value reported: 2.43
//
Query sequence: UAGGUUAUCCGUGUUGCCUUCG
Outcome measure: HRG-induced Akt activation (log2)
Value reported: 1.17
//
Query sequence: CUAUACGGCCUCCUAGCUUUCC
Outcome measure: HRG-induced Akt activation (log2)
Value reported: 1.9
//
Query sequence: CCGUCGCCGCCACCCGAGCCG
Outcome measure: HRG-induced Akt activation (log2)
Value reported: 1.23

* * *

System: MCF7
Test: HRG-induced Akt activation (dPAkt = log2 pAkt/Akt HRG-stimulated minus log2 pAkt/Akt basal) (log2 ratio difference); higher = stronger HRG-induced Akt(T308) phosphorylation
Settings: miRNA mimic concentration 10 nM; time after transfection 72 h; heregulin 10 ng/ml; stimulation time 1 h
// not satisfied strictly below 2 in HRG-induced Akt activation (log2); satisfied otherwise

Query sequence: AAGGAGCUUACAAUCUAGCUGGG
Target: MCF7
Assigned class: not satisfied

Query sequence: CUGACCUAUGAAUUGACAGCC
Target: MCF7
Assigned class: not satisfied

Query sequence: AUGACCUAUGAAUUGACAGAC
Target: MCF7
Assigned class: not satisfied

Query sequence: UGGAAGACUAGUGAUUUUGUUGU
Target: MCF7
Assigned class: satisfied

Query sequence: UGAAGGUCUACUGUGUGCCAGG
Target: MCF7
Assigned class: not satisfied

Query sequence: GGGGUUCCUGGGGAUGGGAUUU
Target: MCF7
Assigned class: not satisfied

* * *

Test system: MCF7
Assay: HRG-induced Akt activation (dPAkt = log2 pAkt/Akt HRG-stimulated minus log2 pAkt/Akt basal) (log2 ratio difference); higher = stronger HRG-induced Akt(T308) phosphorylation
Conditions: miRNA mimic concentration 10 nM; time after transfection 72 h; heregulin 10 ng/ml; stimulation time 1 h

Query sequence: UCCAGUACCACGUGUCAGGGCCA
Target: MCF7
HRG-induced Akt activation (log2): 0.976
--
Query sequence: UACUGCAGACAGUGGCAAUCA
Target: MCF7
HRG-induced Akt activation (log2): 1.21
--
Query sequence: UGAGAUGAAGCACUGUAGCUC
Target: MCF7
HRG-induced Akt activation (log2): 1.18

* * *

System: MCF7
Assay: HRG-induced Akt activation (dPAkt = log2 pAkt/Akt HRG-stimulated minus log2 pAkt/Akt basal) (log2 ratio difference); higher = stronger HRG-induced Akt(T308) phosphorylation
Details: miRNA mimic concentration 10 nM; time after transfection 72 h; heregulin 10 ng/ml; stimulation time 1 h

Query sequence: CACUCAGCCUUGAGGGCACUUUC
Target: MCF7
HRG-induced Akt activation (log2): 0.664

Query sequence: CUUAGCAGGUUGUAUUAUCAUU
Target: MCF7
HRG-induced Akt activation (log2): 1.81

Query sequence: UGGUGGGCACAGAAUCUGGACU
Target: MCF7
HRG-induced Akt activation (log2): 1.74

Query sequence: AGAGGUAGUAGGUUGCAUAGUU
Target: MCF7
HRG-induced Akt activation (log2): 1.08

Query sequence: UGGAUUUCUUUGUGAAUCACCA
Target: MCF7
HRG-induced Akt activation (log2): 1.87

Query sequence: CCCCCACAACCGCGCUUGACUAGCU
Target: MCF7
HRG-induced Akt activation (log2): 1.4

Query sequence: UGACAACUAUGGAUGAGCUCU
Target: MCF7
HRG-induced Akt activation (log2): 1.53

Query sequence: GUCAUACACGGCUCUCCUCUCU
Target: MCF7
HRG-induced Akt activation (log2): 0.922

Query sequence: AGUUUUGCAGGUUUGCAUCCAGC
Target: MCF7
HRG-induced Akt activation (log2): 1.36

Query sequence: UCUACAGUGCACGUGUCUCCAG
Target: MCF7
HRG-induced Akt activation (log2): 1.65

Query sequence: CAUAAAGUAGAAAGCACUACU
Target: MCF7
HRG-induced Akt activation (log2): 1.54

Query sequence: UGAGAACCACGUCUGCUCUGAG
Target: MCF7
HRG-induced Akt activation (log2): 2.16

Query sequence: CCUCUUCCCCUUGUCUCUCCAG
Target: MCF7
HRG-induced Akt activation (log2): 1.52

Query sequence: UCGCCUCCUCCUCUCCC
Target: MCF7
HRG-induced Akt activation (log2): 1.47

Query sequence: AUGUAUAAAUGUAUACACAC
Target: MCF7
HRG-induced Akt activation (log2): 1.42

Query sequence: CAAAAGUAAUUGUGGAUUUUGU
Target: MCF7
HRG-induced Akt activation (log2): 1.5

Query sequence: ACUGCCCCAGGUGCUGCUGG
Target: MCF7
HRG-induced Akt activation (log2): 1.25

Query sequence: CAAGCUCGUGUCUGUGGGUCCG
Target: MCF7
HRG-induced Akt activation (log2): 0.995

Query sequence: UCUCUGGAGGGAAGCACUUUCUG
Target: MCF7
HRG-induced Akt activation (log2): 1.33

Query sequence: UGUCUACUACUGGAGACACUGG
Target: MCF7
HRG-induced Akt activation (log2): 2.12

Query sequence: UGUGACUGGUUGACCAGAGGGG
Target: MCF7
HRG-induced Akt activation (log2): 1.6

Query sequence: CAGGGAGGUGAAUGUGAU
Target: MCF7
HRG-induced Akt activation (log2): 1.71

Query sequence: CUCCCACUGCUUCACUUGACUA
Target: MCF7
HRG-induced Akt activation (log2): 1.32

Query sequence: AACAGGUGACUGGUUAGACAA
Target: MCF7
HRG-induced Akt activation (log2): 2.3

Query sequence: CUGCCCUGGCCCGAGGGACCGA
Target: MCF7
HRG-induced Akt activation (log2): 1.21

Query sequence: AGGUUACCCGAGCAACUUUGCAU
Target: MCF7
HRG-induced Akt activation (log2): 0.732

Query sequence: CUCAUCUGCAAAGAAGUAAGUG
Target: MCF7
HRG-induced Akt activation (log2): 1.5

Query sequence: CUUUCAGUCAGAUGUUUGCUGC
Target: MCF7
HRG-induced Akt activation (log2): 1.67

Query sequence: CUCCUAUAUGAUGCCUUUCUUC
Target: MCF7
HRG-induced Akt activation (log2): 1.72

Query sequence: UGCCUGGGUCUCUGGCCUGCGCGU
Target: MCF7
HRG-induced Akt activation (log2): 1.29

Query sequence: AAGGCAGGGCCCCCGCUCCCC
Target: MCF7
HRG-induced Akt activation (log2): 1.14

Query sequence: AAAGUGCAUCCUUUUAGAGUGU
Target: MCF7
HRG-induced Akt activation (log2): 0.756

Query sequence: UAAAGAGCCCUGUGGAGACA
Target: MCF7
HRG-induced Akt activation (log2): 1.58

Query sequence: UUUCAAGCCAGGGGGCGUUUUUC
Target: MCF7
HRG-induced Akt activation (log2): 0.989

Query sequence: AGGUUGUCCGUGGUGAGUUCGCA
Target: MCF7
HRG-induced Akt activation (log2): 1.02

Query sequence: CCUCUAGAUGGAAGCACUGUCU
Target: MCF7
HRG-induced Akt activation (log2): 1.41

Query sequence: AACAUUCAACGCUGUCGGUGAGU
Target: MCF7
HRG-induced Akt activation (log2): 1.71

Query sequence: CAAAGGUAUUUGUGGUUUUUG
Target: MCF7
HRG-induced Akt activation (log2): 1.74

Query sequence: CCUAUUCUUGAUUACUUGUUUC
Target: MCF7
HRG-induced Akt activation (log2): 1.27

Query sequence: UCUGGCUCCGUGUCUUCACUCCC
Target: MCF7
HRG-induced Akt activation (log2): 0.873

Query sequence: GCUGGUUUCAUAUGGUGGUUUAGA
Target: MCF7
HRG-induced Akt activation (log2): 1.82

Query sequence: AUGGUACCCUGGCAUACUGAGU
Target: MCF7
HRG-induced Akt activation (log2): 1.62

Query sequence: UGUGCAAAUCUAUGCAAAACUGA
Target: MCF7
HRG-induced Akt activation (log2): 0.826

Query sequence: GUGCCAGCUGCAGUGGGGGAG
Target: MCF7
HRG-induced Akt activation (log2): 0.883

Query sequence: AGUUCUUCAGUGGCAAGCUUUA
Target: MCF7
HRG-induced Akt activation (log2): 0.966

Query sequence: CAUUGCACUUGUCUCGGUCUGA
Target: MCF7
HRG-induced Akt activation (log2): 1.74

Query sequence: ACUCUAGCUGCCAAAGGCGCU
Target: MCF7
HRG-induced Akt activation (log2): 1.02

Query sequence: UAACAGUCUCCAGUCACGGCC
Target: MCF7
HRG-induced Akt activation (log2): 1.5

Query sequence: AAUCCUUGGAACCUAGGUGUGAGU
Target: MCF7
HRG-induced Akt activation (log2): 2.15
